Provenance of the data: PubChem BioAssay AID2060907

Consider the following compounds and their measured viability, T/C readings.
System: 388556-164-R-J1-PDC complex spheroid viability
experiment-summary: Anticancer human tumor 388556-164-R-J1-PDC patient-derived colon adenocarcinoma cell line growth inhibition [RAS]
cond: second compound 0.0316 µM; first compound 0.1 µM; stronger effect = lower value

compound	system	measurement-unit	viability, T/C
CC(C)NCC(C(=O)N1CCN(c2ncnc3c2C(C)CC3O)CC1)c1ccc(Cl)cc1 (stereo not given) + C=CC(=O)N1CCN(c2nc(OCC3CCCN3C)nc3c(F)c(-c4nc(N)cc(C)c4C(F)(F)F)c(Cl)cc23)C(C)C1	388556-164-R-J1-PDC complex spheroid viability	%	113
C=CC(=O)Nc1cc(Nc2nccc(-c3cn(C)c4ccccc34)n2)c(OC)cc1N(C)CCN(C)C + C#Cc1c(F)ccc2cc(O)cc(-c3ncc4c(N5CC6CCC(C5)N6)nc(OCC56CCCN5CC(F)C6)nc4c3F)c12	388556-164-R-J1-PDC complex spheroid viability	%	92.2
CC(Nc1ccc2c(c1)OCCn1cc(N3C(=O)OCC3C(F)F)nc1-2)C(N)=O (stereo not given) + C=CC(=O)N1CCN(c2nc(OCC3CCCN3C)nc3c(F)c(-c4nc(N)cc(C)c4C(F)(F)F)c(Cl)cc23)C(C)C1	388556-164-R-J1-PDC complex spheroid viability	%	98.9
CC1(O)CCCC1n1c(=O)c(C(F)F)cc2cnc(NC3CCN(S(C)(=O)=O)CC3)nc21 (stereo not given) + C=CC(=O)N1CCN(c2nc(OCC3CCCN3C)nc3c(F)c(-c4nc(N)cc(C)c4C(F)(F)F)c(Cl)cc23)C(C)C1	388556-164-R-J1-PDC complex spheroid viability	%	104
CC(=O)OC12COC1CC(O)C1(C)C(=O)C(O)C3=C(C)C(OC(=O)C(O)C(NC(=O)OC(C)(C)C)c4ccccc4)CC(O)(C(OC(=O)c4ccccc4)C21)C3(C)C (stereo not given) + C=CC(=O)N1CCN(c2nc(OCC3CCCN3C)nc3c(F)c(-c4nc(N)cc(C)c4C(F)(F)F)c(Cl)cc23)C(C)C1	388556-164-R-J1-PDC complex spheroid viability	%	83.4

====

Test system: 388556-164-R-J1-PDC complex spheroid viability
experiment-summary: Anticancer human tumor 388556-164-R-J1-PDC cell line growth inhibition [RAS];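 further: spheroids exposed to compound for 7 days before readout; 100% = DMSO vehicle control luminescence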
cond: second compound 0.0949 µM; first compound 0.316 µM; stronger effect = lower value
// boundary case: viability, T/C equal to 50% maps to false (0); strictly smaller maps to true (1)

molecule	system	group
Nc1ccn(C2OC(CO)C(O)C2(F)F)c(=O)n1 (stereo not given) + CCn1c(-c2cccnc2C(C)OC)c2c3cc(ccc31)N1CCOC(CC(NC(=O)C(C(C)C)N(C)C(=O)C3(F)CCN(C(=O)C#CC(C)(C)N(C)C)CC3)C(=O)N3CCCC(N3)C(=O)OCC(C)(C)C2)C1	388556-164-R-J1-PDC complex spheroid viability	false (0)
CC(=O)OC12COC1CC(O)C1(C)C(=O)C(O)C3=C(C)C(OC(=O)C(O)C(NC(=O)OC(C)(C)C)c4ccccc4)CC(O)(C(OC(=O)c4ccccc4)C21)C3(C)C (stereo not given) + CCn1c(-c2cccnc2C(C)OC)c2c3cc(ccc31)N1CCOC(CC(NC(=O)C(C(C)C)N(C)C(=O)C3(F)CCN(C(=O)C#CC(C)(C)N(C)C)CC3)C(=O)N3CCCC(N3)C(=O)OCC(C)(C)C2)C1	388556-164-R-J1-PDC complex spheroid viability	false (0)
C=CC(=O)Nc1cc(Nc2nccc(-c3cn(C)c4ccccc34)n2)c(OC)cc1N(C)CCN(C)C + CCn1c(-c2cc(N3CCN(C)CC3)cnc2C(C)OC)c2c3cc(ccc31)-c1csc(n1)CC(NC(=O)C1CC1C)C(=O)N1CCCC(N1)C(=O)OCC(C)(C)C2	388556-164-R-J1-PDC complex spheroid viability	true (1)
CC(Nc1ccc2c(c1)OCCn1cc(N3C(=O)OCC3C(F)F)nc1-2)C(N)=O (stereo not given) + CCn1c(-c2cccnc2C(C)OC)c2c3cc(ccc31)N1CCOC(CC(NC(=O)C(C(C)C)N(C)C(=O)C3(F)CCN(C(=O)C#CC(C)(C)N(C)C)CC3)C(=O)N3CCCC(N3)C(=O)OCC(C)(C)C2)C1	388556-164-R-J1-PDC complex spheroid viability	false (0)
C[C@@H](NC(=O)c1ncnc(N)c1Cl)c1ncc(C(=O)Nc2cc(C(F)(F)F)c(Cl)cn2)s1 + CCn1c(-c2cccnc2C(C)OC)c2c3cc(ccc31)N1CCOC(CC(NC(=O)C(C(C)C)N(C)C(=O)C3(F)CCN(C(=O)C#CC(C)(C)N(C)C)CC3)C(=O)N3CCCC(N3)C(=O)OCC(C)(C)C2)C1	388556-164-R-J1-PDC complex spheroid viability	false (0)
CCC(CC)c1cc(NC2CCC(N)C2)n2nccc2n1 (stereo not given) + CCn1c(-c2cc(N3CCN(C)CC3)cnc2C(C)OC)c2c3cc(ccc31)-c1csc(n1)CC(NC(=O)C1CC1C)C(=O)N1CCCC(N1)C(=O)OCC(C)(C)C2	388556-164-R-J1-PDC complex spheroid viability	true (1)
CC1(O)CCCC1n1c(=O)c(C(F)F)cc2cnc(NC3CCN(S(C)(=O)=O)CC3)nc21 (stereo not given) + CCn1c(-c2cc(N3CCN(C)CC3)cnc2C(C)OC)c2c3cc(ccc31)-c1csc(n1)CC(NC(=O)C1CC1C)C(=O)N1CCCC(N1)C(=O)OCC(C)(C)C2	388556-164-R-J1-PDC complex spheroid viability	true (1)
NC1c2ccccc2OC12CCN(c1cnc3c(N4CCCc5ncccc54)n[nH]c3n1)CC2 (stereo not given) + CCn1c(-c2cccnc2C(C)OC)c2c3cc(ccc31)N1CCOC(CC(NC(=O)C(C(C)C)N(C)C(=O)C3(F)CCN(C(=O)C#CC(C)(C)N(C)C)CC3)C(=O)N3CCCC(N3)C(=O)OCC(C)(C)C2)C1	388556-164-R-J1-PDC complex spheroid viability	true (1)
C=CC(=O)Nc1cc(Nc2nccc(-c3cn(C)c4ccccc34)n2)c(OC)cc1N(C)CCN(C)C + CCn1c(-c2cccnc2C(C)OC)c2c3cc(ccc31)N1CCOC(CC(NC(=O)C(C(C)C)N(C)C(=O)C3(F)CCN(C(=O)C#CC(C)(C)N(C)C)CC3)C(=O)N3CCCC(N3)C(=O)OCC(C)(C)C2)C1	388556-164-R-J1-PDC complex spheroid viability	false (0)
CCN1CCN(Cc2ccc(Nc3ncc(F)c(-c4cc(F)c5nc(C)n(C(C)C)c5c4)n3)nc2)CC1 + CCn1c(-c2cc(N3CCN(C)CC3)cnc2C(C)OC)c2c3cc(ccc31)-c1csc(n1)CC(NC(=O)C1CC1C)C(=O)N1CCCC(N1)C(=O)OCC(C)(C)C2	388556-164-R-J1-PDC complex spheroid viability	true (1)
O=C(c1ccc(F)c(F)c1Nc1ccc(I)cc1F)N1CC(O)([C@@H]2CCCCN2)C1 + CCn1c(-c2cc(N3CCN(C)CC3)cnc2C(C)OC)c2c3cc(ccc31)-c1csc(n1)CC(NC(=O)C1CC1C)C(=O)N1CCCC(N1)C(=O)OCC(C)(C)C2	388556-164-R-J1-PDC complex spheroid viability	true (1)
NC1c2ccccc2OC12CCN(c1cnc3c(N4CCCc5ncccc54)n[nH]c3n1)CC2 (stereo not given) + CCn1c(-c2cc(N3CCN(C)CC3)cnc2C(C)OC)c2c3cc(ccc31)-c1csc(n1)CC(NC(=O)C1CC1C)C(=O)N1CCCC(N1)C(=O)OCC(C)(C)C2	388556-164-R-J1-PDC complex spheroid viability	true (1)
C[C@@H](NC(=O)c1ncnc(N)c1Cl)c1ncc(C(=O)Nc2cc(C(F)(F)F)c(Cl)cn2)s1 + CCn1c(-c2cc(N3CCN(C)CC3)cnc2C(C)OC)c2c3cc(ccc31)-c1csc(n1)CC(NC(=O)C1CC1C)C(=O)N1CCCC(N1)C(=O)OCC(C)(C)C2	388556-164-R-J1-PDC complex spheroid viability	false (0)
CC(=O)OC12COC1CC(O)C1(C)C(=O)C(O)C3=C(C)C(OC(=O)C(O)C(NC(=O)OC(C)(C)C)c4ccccc4)CC(O)(C(OC(=O)c4ccccc4)C21)C3(C)C (stereo not given) + CCn1c(-c2cc(N3CCN(C)CC3)cnc2C(C)OC)c2c3cc(ccc31)-c1csc(n1)CC(NC(=O)C1CC1C)C(=O)N1CCCC(N1)C(=O)OCC(C)(C)C2	388556-164-R-J1-PDC complex spheroid viability	true (1)
C=CC(=O)N1CCN(c2nc(OCC3CCCN3C)nc3c(F)c(-c4nc(N)cc(C)c4C(F)(F)F)c(Cl)cc23)C(C)C1 (stereo not given) + CCn1c(-c2cc(N3CCN(C)CC3)cnc2C(C)OC)c2c3cc(ccc31)-c1csc(n1)CC(NC(=O)C1CC1C)C(=O)N1CCCC(N1)C(=O)OCC(C)(C)C2	388556-164-R-J1-PDC complex spheroid viability	false (0)
